- testSummary: Inhibition of rat small intestinal maltase after 30 mins
readoutType: IC50

• O=S(=O)([O-])O[C@@H]([C@H](O)[C@@H](O)CO)[C@H](O)C[S@@+]1C[C@@H](O)[C@H](O)[C@H]1CO = > 100 µM
• O=S(=O)([O-])OC[C@H](O)C[S@@+]1C[C@@H](O)[C@H](O)[C@H]1CO = 3.2 µM
• O=S(=O)([O-])O[C@H]([C@@H](O)[C@@H](O)[C@H](O)CO)[C@H](O)C[S+]1C[C@@H](O)[C@H](O)[C@H]1CO (stereo partly specified) = > 236 µM
• O=S(=O)([O-])O[C@H]([C@@H](O)[C@H](O)[C@@H](O)CO)[C@H](O)C[S+]1C[C@@H](O)[C@H](O)[C@H]1CO (stereo partly specified) = > 236 µM
• O=S(=O)([O-])O[C@H]([C@@H](O)[C@H](O)[C@H](O)CO)[C@H](O)C[S+]1C[C@@H](O)[C@H](O)[C@H]1CO (stereo partly specified) = > 236 µM
• O=S(=O)([O-])O[C@H]([C@@H](O)[C@@H](O)[C@@H](O)CO)[C@H](O)C[S+]1C[C@@H](O)[C@H](O)[C@H]1CO (stereo partly specified) = 57 µM
